# target.desc: F876L mutant Androgen Receptor (AR-F876L) (Homo sapiens (Human), UniProt P10275, F877L)
# Sequence (P10275 whole entry F877L): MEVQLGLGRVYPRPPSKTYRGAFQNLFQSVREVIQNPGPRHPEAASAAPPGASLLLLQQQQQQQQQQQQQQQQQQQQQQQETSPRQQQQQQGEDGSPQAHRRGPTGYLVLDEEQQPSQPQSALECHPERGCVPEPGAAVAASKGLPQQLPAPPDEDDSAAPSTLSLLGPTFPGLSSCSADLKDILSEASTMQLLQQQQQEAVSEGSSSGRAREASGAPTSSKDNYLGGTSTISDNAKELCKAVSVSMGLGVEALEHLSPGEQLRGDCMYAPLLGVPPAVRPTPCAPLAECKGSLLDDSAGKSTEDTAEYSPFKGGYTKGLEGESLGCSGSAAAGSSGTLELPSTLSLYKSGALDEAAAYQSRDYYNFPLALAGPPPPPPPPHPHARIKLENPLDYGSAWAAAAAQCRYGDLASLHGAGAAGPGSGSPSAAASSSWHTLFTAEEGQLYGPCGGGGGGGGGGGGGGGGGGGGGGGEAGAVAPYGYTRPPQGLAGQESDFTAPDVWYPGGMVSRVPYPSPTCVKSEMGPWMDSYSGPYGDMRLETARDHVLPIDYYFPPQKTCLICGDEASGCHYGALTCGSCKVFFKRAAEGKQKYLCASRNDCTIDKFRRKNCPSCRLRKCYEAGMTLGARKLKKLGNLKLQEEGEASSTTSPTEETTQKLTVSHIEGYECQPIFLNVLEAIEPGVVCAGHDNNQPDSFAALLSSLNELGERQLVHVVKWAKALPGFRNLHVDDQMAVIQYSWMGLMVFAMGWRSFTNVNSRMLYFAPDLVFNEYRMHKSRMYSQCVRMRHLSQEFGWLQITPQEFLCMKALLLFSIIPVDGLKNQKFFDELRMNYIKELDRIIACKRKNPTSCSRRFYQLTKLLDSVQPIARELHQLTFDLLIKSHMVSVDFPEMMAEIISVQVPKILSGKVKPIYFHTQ
# assay: LNCaP-AR-F876L AG reporter assay (agonist mode)
# Assay type: cell-based
# experimental.parameters: agonist mode; maximum % stimulation over tested concentration range; read-out: LNCaP-AR-F876L AG MAX % Stim
Exercise: state measured Emax for each of the compounds provided.
Provide the measurement as a number trailed by its unit.

[
  {
    "compound": "CN1CCC(CNC(=O)c2ccc(N3C(=S)N(c4cnc(C#N)c(C(F)(F)F)c4)C(=O)C34CCC4)cc2F)CC1 [Cpd 201]",
    "reading": "0%"
  }
]

Could you tell me Emax for each of these compounds? They are listed below.
1. Cc1cc(N2C(=O)C3(CCC3)N(c3ccc(CC4CCN(C)CC4)cc3)C2=S)cnc1C#N [Cpd 238]
2. CN1CC[C@@H](CNC(=O)c2ccc(N3C(=S)N(c4cnc(C#N)c(C(F)(F)F)c4)C(=O)C34CCC4)cc2)C1 [Cpd 187]
3. Cc1cc(N2C(=O)C3(CCC3)N(c3cnc(OC4CCNCC4)nc3)C2=S)cnc1C#N [Cpd 246]

Response:
1: 0.1%; 2: 0.2%; 3: 0.2%
